Just for reference, patent US20210079074A1 is where these values come from.

I'd appreciate it if you could supply MFI values for the items below.
# Test system: human MS4A4A (human, UniProt Q96JQ5 1-239)
# Test: FACS, U937-huMS4A4A, 5 ug/ml
Numbers only.

Take a look at these entries with their results.
1) anti-MS4A4A antibody 4A-355 (antibody, V domains shown, full human IgG) VH: QVQLVQSGSELKKPGASVKVSCKASGYIFTSYGLSWVRQAPGQGLEWMGWINTYSGVPTYAQGFTGRFVFSLDTSVSTAYLQISSLKAEDTAVYYCARTLADYWGQGTLVTVSS VL: DVVMTQSPLSLPVTLGQPASISCKSSRSLLYSSGKTYLSWFQQRPGQSPRRLIYLVSKLDSGVPDRFSGSGSGTDFTLKISRVEAEDVGVYYCWQGIDFHQTFGGGTKVEIK | 13400
2) anti-MS4A4A antibody 4A-352 (antibody, V domains shown, full human IgG) VH: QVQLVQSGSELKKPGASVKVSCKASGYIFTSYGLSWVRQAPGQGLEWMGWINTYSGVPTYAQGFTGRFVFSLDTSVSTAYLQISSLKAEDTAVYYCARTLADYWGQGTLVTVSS VL: DVVMTQSPLSLPVTLGQPASISCKSSRSLLYSGGKTYLSWFQQRPGQSPRRLIYLVSKLDSGVPDRFSGSGSGTDFTLKISRVEAEDVGVYYCWQGIDFHQTFGGGTKVEIK | 11000
3) anti-MS4A4A antibody 4A-379 (antibody, V domains shown) VH: QVQLVQSGSELKKPGASVKVSCKASGYIFTSYGLSWVRQAPGQGLEWMGWINTYSGVPTYAQGFTGRFVFSLDTSVSTAYLQISSLKAEDTAVYYCARSMADYWGQGTLVTVSS VL: DVVMTQSPLSLPVTLGQPASISCKSSRSLLYSAGKTYLSWFQQRPGQSPRRLIYLVSKLDSGVPDRFSGSGSGTDFTLKISRVEAEDVGVYYCWQGIDFHQTFGGGTKVEIK | 10600
4) anti-MS4A4A antibody 4A-351 (antibody, V domains shown, full human IgG) VH: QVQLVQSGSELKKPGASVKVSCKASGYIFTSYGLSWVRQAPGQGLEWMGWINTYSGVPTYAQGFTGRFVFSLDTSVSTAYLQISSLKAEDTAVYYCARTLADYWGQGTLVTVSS VL: DVVMTQSPLSLPVTLGQPASISCKSSRSLLYSDGKTYLSWFQQRPGQSPRRLIYLVSKLDSGVPDRFSGSGSGTDFTLKISRVEAEDVGVYYCWQGIDFHQTFGGGTKVEIK | 12200
5) anti-MS4A4A antibody 4A-380 (antibody, V domains shown) VH: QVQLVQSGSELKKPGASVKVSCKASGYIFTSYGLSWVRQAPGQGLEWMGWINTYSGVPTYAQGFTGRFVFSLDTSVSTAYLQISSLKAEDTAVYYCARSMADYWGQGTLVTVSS VL: DVVMTQSPLSLPVTLGQPASISCKSSRSLLYSSGKTYLSWFQQRPGQSPRRLIYLVSKLDSGVPDRFSGSGSGTDFTLKISRVEAEDVGVYYCWQGIDFHQTFGGGTKVEIK | 11800

For each listed entry, give its MFI.
1. anti-MS4A4A antibody 4A-353 (antibody, V domains shown, full human IgG) VH: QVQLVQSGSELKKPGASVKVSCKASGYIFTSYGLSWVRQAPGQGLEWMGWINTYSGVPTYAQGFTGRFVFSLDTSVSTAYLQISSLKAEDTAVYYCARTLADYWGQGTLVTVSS VL: DVVMTQSPLSLPVTLGQPASISCKSSRSLLYSEGKTYLSWFQQRPGQSPRRLIYLVSKLDSGVPDRFSGSGSGTDFTLKISRVEAEDVGVYYCWQGIDFHQTFGGGTKVEIK
2. anti-MS4A4A antibody 4A-356 (antibody, V domains shown, full human IgG) VH: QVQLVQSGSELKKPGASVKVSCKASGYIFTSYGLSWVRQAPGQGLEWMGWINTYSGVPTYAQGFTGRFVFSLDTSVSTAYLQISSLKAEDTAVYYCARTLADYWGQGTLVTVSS VL: DVVMTQSPLSLPVTLGQPASISCKSSRSLLYSQGKTYLSWFQQRPGQSPRRLIYLVSKLDSGVPDRFSGSGSGTDFTLKISRVEAEDVGVYYCWQGIDFHQTFGGGTKVEIK
3. anti-MS4A4A antibody 4A-332 (antibody, human IgG1, V domains shown, humanized 4A-21; human IgG1/kappa) VH: QVQLVQSGSELKKPGASVKVSCKASGYIFTSYGLSWVRQAPGQGLEWMGWINTYSGVPTYAQGFTGRFVFSLDTSVSTAYLQISSLKAEDTAVYYCARSLVDYWGQGTLVTVSS VL: DVVMTQSPLSLPVTLGQPASISCKSSQSLLYSDGKTYLSWFQQRPGQSPRRLIYLVSKLDSGVPDRFSGSGSGTDFTLKISRVEAEDVGVYYCWQGIDFHQTFGGGTKVEIK
4. anti-MS4A4A antibody 4A-373 (antibody, V domains shown, full human IgG) VH: QVQLVQSGSELKKPGASVKVSCKASGYIFTSYGLSWVRQAPGQGLEWMGWINTYSGVPTYAQGFTGRFVFSLDTSVSTAYLQISSLKAEDTAVYYCARTLVDYWGQGTLVTVSS VL: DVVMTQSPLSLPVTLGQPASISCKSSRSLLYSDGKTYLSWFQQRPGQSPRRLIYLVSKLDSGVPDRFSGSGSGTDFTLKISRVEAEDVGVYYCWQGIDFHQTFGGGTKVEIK

output:
1: 10400; 2: 12000; 3: 8820; 4: 11900

input: Could you tell me which MFI is on file for anti-MS4A4A antibody 4A-358 (antibody, V domains shown, full human IgG) VH: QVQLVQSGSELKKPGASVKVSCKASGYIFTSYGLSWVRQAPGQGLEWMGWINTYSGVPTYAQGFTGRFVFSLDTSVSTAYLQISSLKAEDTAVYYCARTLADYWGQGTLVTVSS VL: DVVMTQSPLSLPVTLGQPASISCKSSQSLLYSDGKTYLSWFQQRPGQSPRRLIYLVSKLDSGVPDRFSGSGSGTDFTLKISRVEAEDVGVYYCWQGIRFHQTFGGGTKVEIK ?
output: 12100
